biological target: Xanthine dehydrogenase/oxidase (Bos taurus); assay: Mixed-type inhibition of bovine milk xanthine oxidase using xanthine as substrate by Lineweaver-Burk plot analysis
Sequence (P80457 whole entry): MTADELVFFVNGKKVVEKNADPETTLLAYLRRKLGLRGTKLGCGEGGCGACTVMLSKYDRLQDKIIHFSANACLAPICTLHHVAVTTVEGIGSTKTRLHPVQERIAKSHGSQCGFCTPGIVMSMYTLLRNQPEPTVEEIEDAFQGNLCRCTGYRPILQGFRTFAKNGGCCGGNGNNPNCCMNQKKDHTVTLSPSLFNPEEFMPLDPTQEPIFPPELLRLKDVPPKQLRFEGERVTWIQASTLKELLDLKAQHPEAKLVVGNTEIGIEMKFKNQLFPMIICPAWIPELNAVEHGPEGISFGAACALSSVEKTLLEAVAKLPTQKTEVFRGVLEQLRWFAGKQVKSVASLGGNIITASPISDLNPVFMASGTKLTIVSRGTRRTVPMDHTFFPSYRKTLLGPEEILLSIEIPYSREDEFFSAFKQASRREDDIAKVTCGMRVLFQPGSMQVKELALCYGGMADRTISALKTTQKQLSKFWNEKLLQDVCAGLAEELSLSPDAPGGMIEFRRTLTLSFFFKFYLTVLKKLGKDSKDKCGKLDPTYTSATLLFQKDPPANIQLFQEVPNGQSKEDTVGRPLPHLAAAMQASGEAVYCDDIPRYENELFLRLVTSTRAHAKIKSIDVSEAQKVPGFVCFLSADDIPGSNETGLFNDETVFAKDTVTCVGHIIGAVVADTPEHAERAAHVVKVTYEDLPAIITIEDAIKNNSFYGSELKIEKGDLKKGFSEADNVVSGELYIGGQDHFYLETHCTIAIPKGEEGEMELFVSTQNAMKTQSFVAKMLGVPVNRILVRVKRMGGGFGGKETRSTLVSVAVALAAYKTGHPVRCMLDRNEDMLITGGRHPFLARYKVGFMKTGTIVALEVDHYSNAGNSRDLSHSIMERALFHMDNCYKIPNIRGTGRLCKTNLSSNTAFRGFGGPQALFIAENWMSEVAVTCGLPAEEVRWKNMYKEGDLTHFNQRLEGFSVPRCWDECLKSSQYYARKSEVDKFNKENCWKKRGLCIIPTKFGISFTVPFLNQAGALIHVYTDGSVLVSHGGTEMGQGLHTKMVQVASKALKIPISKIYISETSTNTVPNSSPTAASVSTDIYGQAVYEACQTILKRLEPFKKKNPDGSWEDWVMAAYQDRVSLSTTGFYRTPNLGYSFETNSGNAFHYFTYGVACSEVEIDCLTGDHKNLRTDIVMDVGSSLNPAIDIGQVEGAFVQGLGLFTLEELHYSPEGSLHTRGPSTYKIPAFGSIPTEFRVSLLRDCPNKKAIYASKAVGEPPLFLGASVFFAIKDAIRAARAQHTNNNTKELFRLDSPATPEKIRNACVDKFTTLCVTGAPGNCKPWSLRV
OBSERVATION_TYPE: pKi
Numbers only, as −log10 of the molar value.

# GIVEN_SMILES, OBSERVATION_TYPE, REPORTED_VALUE
measured = [
    ("Cc1cccc(-c2cnn3c(O)cc(O)nc23)c1", "pKi", 7.70),
]

Please look at the items below and tell me pKi for each one, in order.
1. Oc1cc(O)n2ncc(-c3ccc4c(c3)OCO4)c2n1
2. Oc1cc(O)n2ncc(-c3ccc(Cl)cc3)c2n1

A:
7.64
7.64

Please look at the items below and tell me pKi for each one, in order.
1. Cc1ccc(-c2cnn3c(O)cc(O)nc23)cc1
2. CC(=O)Nc1ccc(-c2cnn3c(O)cc(O)nc23)cc1

A:
[7.77, 7.07]

Please look at the items below and tell me pKi for each one, in order.
1. Oc1cc(O)n2ncc(-c3ccc(Br)cc3)c2n1
2. O=[N+]([O-])c1cnn2c(O)cc(O)nc12

A:
[7.59, 4.43]
